Origin of measurements: ChEMBL document CHEMBL6109134

- Measurement Description: Unbound brain-to-plasma concentration ratio in female Sprague-Dawley rat at 25 mg/kg, po administered as single dose
- Assay type: ADME, organism-based
- Conditions: read-out: K(p,uu,brain)
Observable: Kp uu
Kindly provide the number alone.

The compound listed as Nc1nc2cnc(C(=O)N3CCOC[C@@H]3c3ccc(C(F)(F)F)cc3)cc2c2c1COC2 has a reported Kp uu of 0.14

* * *

- Measurement Description: Oral bioavailability in Beagle dog at 2 mg/kg administered as 1% Tween 80, 2% HPMC, 97% water/methanesulfonic acid, pH 2.0 formulation
- Format: ADME, organism-based, Canis lupus familiaris
- Conditions: in vivo
Observable: bioavailability (%)
Reply with just the number (in %).

The compound listed as Cc1cc2cc(C(=O)N(Cc3ccc(C(F)(F)F)cn3)[C@H](C)c3ncccn3)ccc2nc1N has a reported bioavailability of 45

* * *

- Measurement Description: Half-life in CD-1 mouse at 1 mg/kg, iv
- Assay type: ADME, organism-based
- Conditions: in vivo
half-life reference

The cases that follow already have their half-life on record.
C[C@H](c1ncccn1)N(Cc1ccc(C(F)(F)F)cn1)C(=O)c1ccc2nc(N)c3c(c2c1)COC3 :: 0.9 h
Nc1nc2ccc(C(=O)N3CCOC[C@@H]3c3ccc(C(F)(F)F)nc3)cc2c2c1COC2 :: 2.5 h
C[C@@H]1COC[C@H](c2ccc(C(F)(F)F)cc2)N1C(=O)c1cc2c3c(c(N)nc2cn1)COC3 :: 2.6 h
Nc1nc2ccc(C(=O)N3CCOC[C@@H]3c3ccc(C(F)(F)F)cc3)cc2c2c1COC2 :: 2.7 h
C[C@H]1OCc2c1c(N)nc1cnc(C(=O)N3CCOC[C@@H]3c3ccc(C(F)(F)F)cc3)cc21 :: 1.6 h
CCN(Cc1ccc(C(F)(F)F)cn1)C(=O)c1ccc2nc(N)c3c(c2c1)COC3 :: 2 h
Nc1nc2ccc(C(=O)N3CCOC[C@@H]3c3ccc(C(F)(F)F)cn3)cc2c2c1COC2 :: 2.1 h

Turning to the following compound.
The compound listed as CN(Cc1ccc(C(F)(F)F)cn1)C(=O)c1ccc2nc(N)c3c(c2c1)COC3 has a reported half-life of 2.2 h

* * *

- Measurement Description: Unbound brain-to-plasma concentration ratio in female Sprague-Dawley rat at 75 mg/kg, po administered as single dose
- Assay type: ADME, organism-based
- Conditions: read-out: K(p,uu,brain)
Observable: Kp uu
Kindly provide the number alone.

The compound listed as Nc1nc2cnc(C(=O)N3CCOC[C@@H]3c3ccc(C(F)(F)F)cc3)cc2c2c1COC2 has a reported Kp uu of 0.12

* * *

- Measurement Description: in vivo
- Conditions: Sprague-Dawley, rat, po, 2 mg/kg, pH 2
Observable: bioavailability (%)
Reply with just the number (in %).

The compound listed as Nc1nc2cnc(C(=O)N3CCOC[C@@H]3c3ccc(C(F)(F)F)cc3)cc2c2c1COC2 has a reported bioavailability of 60

* * *

- Measurement Description: Metabolic stability in dog liver microsomes assessed as intrinsic clearance
- Format: ADME, Canis lupus familiaris, Microsome
- Conditions: read-out: CLH
microsomal CLint reference
Reply with just the number (in µL/min/mg).

Nc1nc2cnc(C(=O)N3CCOC[C@@H]3c3ccc(C(F)(F)F)cc3)cc2c2c1COC2 :: 14

The compound listed as Cc1cc2cc(C(=O)N(Cc3ccc(C(F)(F)F)cn3)[C@H](C)c3ncccn3)ccc2nc1N has a reported microsomal CLint of 25

* * *

- Measurement Description: Metabolic stability in rat liver microsomes assessed as intrinsic clearance
- Assay type: ADME, Microsome
- Conditions: time 40 min, read-out: CLH
Observable: microsomal CLint at 0.5 µM
Kindly format the answer as number then unit.

Cc1cc2cc(C(=O)N(Cc3ccc(C(F)(F)F)cn3)[C@H](C)c3ncccn3)ccc2nc1N :: 25 µL/min/mg

Turning to the following molecule.
The molecule listed as Nc1nc2cnc(C(=O)N3CCOC[C@@H]3c3ccc(C(F)(F)F)cc3)cc2c2c1COC2 has a reported microsomal CLint at 0.5 µM of 123 µL/min/mg

* * *

clearance reference
- Measurement Description: Clearance in Sprague-Dawley rat at 0.5 mg/kg, iv
- Conditions: in vivo
Reply with just the number (in mL/min/kg).

Cc1cc2cc(C(=O)N(Cc3ccc(C(F)(F)F)cn3)[C@H](C)c3ncccn3)ccc2nc1N :: 26.7

Turning to the following compound.
The compound listed as Nc1nc2cnc(C(=O)N3CCOC[C@@H]3c3ccc(C(F)(F)F)cc3)cc2c2c1COC2 has a reported clearance of 28.3

* * *

Let's go through some pKi measurements on PRMT5/MEP50 complex (Homo sapiens) together.
Sequence (O14744 whole entry): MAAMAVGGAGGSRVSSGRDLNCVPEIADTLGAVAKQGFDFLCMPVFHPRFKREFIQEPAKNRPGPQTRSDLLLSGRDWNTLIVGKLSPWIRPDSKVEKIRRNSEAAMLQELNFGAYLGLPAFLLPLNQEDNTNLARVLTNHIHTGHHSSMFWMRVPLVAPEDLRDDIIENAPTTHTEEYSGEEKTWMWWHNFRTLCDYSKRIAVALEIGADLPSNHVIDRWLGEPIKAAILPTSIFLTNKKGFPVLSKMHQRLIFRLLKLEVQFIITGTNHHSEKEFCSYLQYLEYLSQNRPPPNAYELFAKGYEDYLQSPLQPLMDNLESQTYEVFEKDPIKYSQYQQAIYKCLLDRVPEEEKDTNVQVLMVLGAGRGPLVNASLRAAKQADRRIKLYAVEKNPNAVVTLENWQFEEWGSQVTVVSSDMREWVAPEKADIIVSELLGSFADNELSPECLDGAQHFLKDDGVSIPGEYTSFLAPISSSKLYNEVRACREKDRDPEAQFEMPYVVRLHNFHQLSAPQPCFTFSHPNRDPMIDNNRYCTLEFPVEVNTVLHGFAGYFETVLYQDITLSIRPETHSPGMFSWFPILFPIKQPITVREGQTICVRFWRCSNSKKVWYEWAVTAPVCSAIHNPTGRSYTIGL
Sequence (Q9BQA1 whole entry, further chain): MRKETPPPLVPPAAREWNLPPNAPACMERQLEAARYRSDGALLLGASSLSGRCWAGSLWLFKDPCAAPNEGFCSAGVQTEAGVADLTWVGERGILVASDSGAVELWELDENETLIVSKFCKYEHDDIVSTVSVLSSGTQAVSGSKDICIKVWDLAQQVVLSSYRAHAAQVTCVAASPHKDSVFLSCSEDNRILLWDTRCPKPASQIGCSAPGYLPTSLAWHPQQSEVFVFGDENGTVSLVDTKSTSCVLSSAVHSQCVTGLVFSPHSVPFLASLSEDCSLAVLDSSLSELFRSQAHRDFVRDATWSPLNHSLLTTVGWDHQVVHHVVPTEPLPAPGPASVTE
Please keep in mind that pKi is minus log10 of the molar concentration; only the number is needed.

Nc1nc2ccc(C(=O)N3CCOC[C@@H]3c3ccc(C(F)(F)F)nc3)cc2c2c1COC2 :: 9.70
Cc1cc2cc(C(=O)N(Cc3ccc(C(F)(F)F)cn3)[C@H](C)c3ncccn3)cnc2nc1N :: 10.00

Turning to the following compound.
The compound listed as Nc1nc2ncc(C(=O)N3CCOCC3c3ccc(C(F)(F)F)cc3)cc2c2c1COC2 (configuration not stated) has a reported pKi of 7.98

* * *

- Measurement Description: Unbound CSF-to-plasma concentration ratio in male Sprague-Dawley rat at 75 mg/kg, po administered as single dose
- Type: ADME, organism-based
Observable: Kp uu
Kindly provide the number alone.

The molecule listed as Nc1nc2cnc(C(=O)N3CCOC[C@@H]3c3ccc(C(F)(F)F)cc3)cc2c2c1COC2 has a reported Kp uu of 0.13

* * *

- Measurement Description: Volume of distribution at steady state in Sprague-Dawley rat at 0.5 mg/kg, iv
- Conditions: in vivo
Observable: Vd

The compound listed as Cc1cc2cc(C(=O)N(Cc3ccc(C(F)(F)F)cn3)[C@H](C)c3ncccn3)ccc2nc1N has a reported Vd of 1.3 L/kg

* * *

- Measurement Description: Unbound brain-to-plasma concentration ratio in male Sprague-Dawley rat at 75 mg/kg, po administered as single dose
- Assay type: ADME, organism-based
- Conditions: read-out: K(p,uu,brain)
Observable: Kp uu
Kindly provide the number alone.

The compound listed as Nc1nc2cnc(C(=O)N3CCOC[C@@H]3c3ccc(C(F)(F)F)cc3)cc2c2c1COC2 has a reported Kp uu of 0.15

* * *

- Measurement Description: Oral bioavailability in CD-1 mouse at 5 mg/kg administered as 1% Tween 80, 2% HPMC, 97% water/methane sulfonic acid, pH 2.0 formulation
- Format: ADME, organism-based
- Conditions: in vivo
Observable: bioavailability (%)
Reply with just the number (in %).

The cases that follow already have their bioavailability on record.
C[C@@H]1COC[C@H](c2ccc(C(F)(F)F)cc2)N1C(=O)c1cc2c3c(c(N)nc2cn1)COC3 :: 51
Nc1nc2ccc(C(=O)N3CCOC[C@@H]3c3ccc(C(F)(F)F)cn3)cc2c2c1COC2 :: 78

The compound listed as C[C@H](c1ncccn1)N(Cc1ccc(C(F)(F)F)cn1)C(=O)c1ccc2nc(N)c3c(c2c1)COC3 has a reported bioavailability of 8

The compound listed as Nc1nc2ccc(C(=O)N3CCOC[C@@H]3c3ccc(C(F)(F)F)cc3)cc2c2c1COC2 has a reported bioavailability of 61

* * *

- System: human MDR1 (P-gp)
- Measurement Description: Efflux ratio of permeability across basolateral to apical side over apical to basolateral side in MDCK cells transfected with human MDR1 in absence of elacridar
- Conditions: dog
efflux ratio reference
Kindly provide the number alone.

C[C@@H]1OCc2c1c(N)nc1cnc(C(=O)N3CCOC[C@@H]3c3ccc(C(F)(F)F)cc3)cc21 :: 7
Cc1cc2cc(C(=O)N(Cc3ccc(C(F)(F)F)cn3)[C@H](C)c3ncccn3)cnc2nc1N :: 63
C[C@H](c1ncccn1)N(Cc1ccc(C(F)(F)F)cn1)C(=O)c1ccc2nc(N)ccc2c1 :: 15
C[C@H]1OCc2c1c(N)nc1cnc(C(=O)N3CCOC[C@@H]3c3ccc(C(F)(F)F)cc3)cc21 :: 7
CN(Cc1ccc(C(F)(F)F)cn1)C(=O)c1ccc2nc(N)c3c(c2c1)COC3 :: 23

The compound Nc1nc2ccc(C(=O)N3CCOC[C@@H]3c3ccc(C(F)(F)F)cn3)cc2c2c1COC2 , when measured on human MDR1 (P-gp), yielded efflux ratio of 33

The compound C[C@H](c1ncccn1)N(Cc1ccc(C(F)(F)F)cn1)C(=O)c1cc2c3c(c(N)nc2cn1)COC3 , when measured on human MDR1 (P-gp), yielded efflux ratio of 61

The compound Nc1nc2ncc(C(=O)N3CCOCC3c3ccc(C(F)(F)F)cc3)cc2c2c1COC2 (stereo unspecified) , when measured on human MDR1 (P-gp), yielded efflux ratio of 69

The compound Nc1nc2ccc(C(=O)N3CCOC[C@@H]3c3ccc(Cl)cc3)cc2c2c1COC2 , when measured on human MDR1 (P-gp), yielded efflux ratio of 8

The compound Cc1cc2cc(C(=O)N(Cc3ccc(C(F)(F)F)cn3)[C@H](C)c3ncccn3)ncc2nc1N , when measured on human MDR1 (P-gp), yielded efflux ratio of 29

The compound Nc1nc2cnc(C(=O)N3CCCC[C@@H]3c3ccc(C(F)(F)F)cc3)cc2c2c1COC2 , when measured on human MDR1 (P-gp), yielded efflux ratio of 4

The compound Nc1nc2ccc(C(=O)N3CCOC[C@@H]3c3ccc(C(F)(F)F)cc3)cc2c2c1COC2 , when measured on human MDR1 (P-gp), yielded efflux ratio of 13
